Molecular target: T1, extracellular domain of human CD73 protein, C-terminus polyhistidine-tagged (human, UniProt P21589 27-547)
T1 construct: also the immunogen; also called CD73-ECD; human CD73-ECD
T1 sequence: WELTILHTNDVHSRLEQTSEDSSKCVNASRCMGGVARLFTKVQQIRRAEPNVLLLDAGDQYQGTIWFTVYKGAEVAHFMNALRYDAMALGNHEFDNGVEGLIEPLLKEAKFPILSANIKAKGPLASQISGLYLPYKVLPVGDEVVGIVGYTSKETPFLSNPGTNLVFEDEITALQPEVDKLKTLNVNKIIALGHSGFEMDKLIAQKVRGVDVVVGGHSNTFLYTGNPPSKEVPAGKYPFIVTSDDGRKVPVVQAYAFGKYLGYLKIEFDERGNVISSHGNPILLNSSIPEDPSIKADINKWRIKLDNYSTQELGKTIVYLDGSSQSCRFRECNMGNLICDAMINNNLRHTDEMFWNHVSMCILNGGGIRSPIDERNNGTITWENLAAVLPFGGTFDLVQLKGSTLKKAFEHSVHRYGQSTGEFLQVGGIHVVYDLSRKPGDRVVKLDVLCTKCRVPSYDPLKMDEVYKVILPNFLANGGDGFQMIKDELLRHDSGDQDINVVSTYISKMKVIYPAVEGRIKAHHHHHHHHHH
Assay: ForteBio OCTET R2 (the filing calls it SPR); antibody on Protein A sensor, CD73-ECD in solution; traces labelled 100, 50, 25, 12.5, 6.25
Description: Surface plasmon resonance (SPR) assay: Protein A sensor was used to immobilize the antibodies, with an immobilization height of about 1.5 nM. […] Affinity detection: equilibrium for 60 s, binding for 180 s, dissociation for 180 s, at a detection temperature of 25° C. Kinetic characterization analysis was performed using the ForteBio OCTET R2 system.
resultType: koff (s⁻¹)

binder	resultType	unitOfMeasure	readoutNumber
chimeric nanobody 5-E11 (Fc fusion, Human-alpaca chimeric antibody (VHH on hIgG1 Fc); Only the VHH is tied to the tested molecule; also called original antibody 5-E11) VHH: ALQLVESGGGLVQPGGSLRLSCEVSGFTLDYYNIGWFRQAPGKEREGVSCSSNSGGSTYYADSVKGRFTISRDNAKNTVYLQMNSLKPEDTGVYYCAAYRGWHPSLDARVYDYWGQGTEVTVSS	koff	s⁻¹	0.000318
chimeric nanobody 4-D04 (Fc fusion, Human-alpaca chimeric antibody) VHH: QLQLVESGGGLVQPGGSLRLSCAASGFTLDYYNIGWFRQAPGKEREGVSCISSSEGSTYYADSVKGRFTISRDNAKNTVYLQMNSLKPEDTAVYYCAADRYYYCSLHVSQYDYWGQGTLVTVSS	koff	s⁻¹	0.000277
chimeric nanobody 4-B02 (Fc fusion, Human-alpaca chimeric antibody) VHH: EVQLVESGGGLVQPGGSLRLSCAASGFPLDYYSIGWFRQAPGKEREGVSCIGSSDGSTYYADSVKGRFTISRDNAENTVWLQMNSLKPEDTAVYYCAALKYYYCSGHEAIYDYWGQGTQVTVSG	koff	s⁻¹	0.000209
chimeric nanobody 3-D7 (Fc fusion, Human-alpaca chimeric antibody (VHH on hIgG1 Fc); Only the VHH is tied to the tested molecule; 37-39 exist for 3-D7-FC1/FC2/FC3; also called original antibody 3-D7) VHH: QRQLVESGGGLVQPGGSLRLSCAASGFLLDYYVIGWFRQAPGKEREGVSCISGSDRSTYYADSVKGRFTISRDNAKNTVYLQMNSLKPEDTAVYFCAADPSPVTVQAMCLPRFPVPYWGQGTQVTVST	koff	s⁻¹	0.000445
